Target: human FAAH (Fatty Acid Amide Hydrolase) (Homo sapiens, UniProt O00519)
Construct: The full length FAAH was subcloned into the mammalian expression vector, pcDEF.neo
Sequence (O00519 whole entry): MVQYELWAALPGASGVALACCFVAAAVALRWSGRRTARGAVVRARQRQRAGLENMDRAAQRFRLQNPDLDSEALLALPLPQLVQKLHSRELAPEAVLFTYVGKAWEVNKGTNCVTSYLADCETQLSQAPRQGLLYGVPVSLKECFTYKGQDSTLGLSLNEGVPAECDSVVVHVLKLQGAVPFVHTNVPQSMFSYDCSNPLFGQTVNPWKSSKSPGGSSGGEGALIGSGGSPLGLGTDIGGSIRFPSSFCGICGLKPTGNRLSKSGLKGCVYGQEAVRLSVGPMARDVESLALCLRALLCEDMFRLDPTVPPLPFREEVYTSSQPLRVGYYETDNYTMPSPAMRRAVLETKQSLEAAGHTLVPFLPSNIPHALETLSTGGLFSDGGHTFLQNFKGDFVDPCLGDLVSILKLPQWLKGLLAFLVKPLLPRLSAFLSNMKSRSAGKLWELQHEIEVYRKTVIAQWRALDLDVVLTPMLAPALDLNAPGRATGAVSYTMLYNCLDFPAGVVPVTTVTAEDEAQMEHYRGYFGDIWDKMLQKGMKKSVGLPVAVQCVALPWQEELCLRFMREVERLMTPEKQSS
Experiment: FAAH enzyme assay on lysate of CHO cells expressing human FAAH
Assay type: biochemical
Excerpt: To assist in assay development stable cell lines for human, murine and rat full length FAAH were developed. Human FAAH cDNA (Accession No: NM_001441.1) was purchased from Origene (Rockville, Md.). The full length FAAH was subcloned into the mammalian expression vector, pcDEF.neo, using XbaI and EcoRI restriction sites and used for stable cell line generation. CHO cells expressing FAAH were used to prepare either crude cell lysate or microsome fractions. […]
pIC50: −log10 of the molar value.
Entries and their pIC50 values follow.

compound: CC(C)(O)c1ccc(-c2nc(-c3ccc(F)cc3)oc2Sc2ccc(Cl)cn2)cc1 [Ex 80]
pIC50: 7.46

compound: CC(C)(O)c1ccc(-c2nc(-c3ccccc3)oc2Sc2ncc(Cl)cn2)cn1 [Ex 62]
pIC50: 7.64

compound: CC(C)(O)c1ccc(-c2nc(Cc3ccc(F)cc3)oc2Sc2ccc(Cl)cn2)cn1 [Ex 123]
pIC50: 7.13

compound: COc1ccc(Sc2oc(-c3ccc(F)cc3)nc2-c2ccc(C(C)(C)O)nc2)c(F)c1 [Ex 65]
pIC50: 7.57

compound: Cc1cc(F)ccc1-c1nc(-c2ccc(C(C)(C)O)nc2)c(Sc2ccc(Cl)cn2)o1 [Ex 37]
pIC50: 7.89

----------
Entries and their log10(IC50) values follow.
Biological target: rat FAAH (Fatty Acid Amide Hydrolase) (Rattus norvegicus)
Sequence (P97612 whole entry): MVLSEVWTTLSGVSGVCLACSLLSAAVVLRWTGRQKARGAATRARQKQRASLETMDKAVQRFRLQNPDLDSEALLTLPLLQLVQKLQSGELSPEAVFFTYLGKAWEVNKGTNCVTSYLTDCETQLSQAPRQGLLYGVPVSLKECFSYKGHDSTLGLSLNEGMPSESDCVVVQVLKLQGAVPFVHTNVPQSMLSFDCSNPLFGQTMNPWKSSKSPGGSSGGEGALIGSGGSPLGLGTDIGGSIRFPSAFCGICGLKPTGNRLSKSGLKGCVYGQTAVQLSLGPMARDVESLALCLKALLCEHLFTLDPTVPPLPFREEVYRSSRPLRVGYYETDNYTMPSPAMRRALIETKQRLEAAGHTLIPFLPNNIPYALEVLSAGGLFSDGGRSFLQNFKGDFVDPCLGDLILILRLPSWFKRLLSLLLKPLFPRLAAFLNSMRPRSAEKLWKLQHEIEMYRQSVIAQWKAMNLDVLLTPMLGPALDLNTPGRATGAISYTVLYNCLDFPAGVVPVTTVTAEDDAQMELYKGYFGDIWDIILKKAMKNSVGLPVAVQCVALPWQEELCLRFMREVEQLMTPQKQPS
Assay: FAAH whole cell assay, CHO cells expressing rat FAAH
Source text: To assist in assay development stable cell lines for human, murine and rat full length FAAH were developed. Human FAAH cDNA (Accession No: NM_001441.1) was purchased from Origene (Rockville, Md.). The full length FAAH was subcloned into the mammalian expression vector, pcDEF.neo, using XbaI and EcoRI restriction sites and used for stable cell line generation. […]
observedProperty: log10(IC50) (log10 of the value in nM)

compound: CS(=O)(=O)c1ccc(-c2nc(-c3ccccn3)oc2Sc2ccc(Cl)cc2)cc1 [Ex 56]
log10(IC50): 1.20

compound: Cc1ccc(-c2nc(-c3ccc(C(C)(C)O)nc3)c(Sc3ccc(Cl)cn3)o2)cc1 [Ex 59]
log10(IC50): 1.60

compound: CC(C)(O)c1ccc(-c2nc(-c3ccc(F)cc3)oc2Sc2ccc(Cl)cn2)cc1 [Ex 80]
log10(IC50): 1.40

compound: Fc1ccc(-c2nc(-c3ccc(-c4ncon4)cc3)c(Sc3ccc(Cl)cc3)o2)cc1 [Ex 48]
log10(IC50): 0.90

compound: CC(C)(O)c1ccc(-c2nc(Cc3ccc(F)cc3)oc2Sc2ccc(Cl)cn2)cn1 [Ex 123]
log10(IC50): 2.46

compound: CC(C)(O)c1ccc(-c2nc(-c3cc(F)c(F)cc3F)oc2Sc2ccc(Cl)cn2)cn1 [Ex 58]
log10(IC50): 1.87

compound: CC(C)(O)c1ccc(-c2nc(-c3ccc(F)cc3)oc2Sc2ccc(Cl)cn2)nn1 [Ex 96]
log10(IC50): 1.80

compound: CS(=O)(=O)c1ccc(-c2nc(-c3ccc(F)cc3)oc2Sc2ncc(Cl)cn2)cn1 [Ex 107]
log10(IC50): 1.04

compound: CC(C)(O)c1ccc(-c2nc(-c3ccccc3)oc2Sc2ncc(Cl)cn2)cn1 [Ex 62]
log10(IC50): 1.46

----------
Entries and their IC50 values follow.
Target: human FAAH (Fatty Acid Amide Hydrolase) (Homo sapiens)
Construct: The full length FAAH was subcloned into the mammalian expression vector, pcDEF.neo
Assay: FAAH enzyme assay on lysate of CHO cells expressing human FAAH
Format: biochemical

chemicalStructure: CC(C)(O)c1ccc(-c2nc(-c3ccc(F)cc3)oc2Sc2ccc(F)cn2)cn1
assayTarget: human FAAH (Fatty Acid Amide Hydrolase) (Homo sapiens)
IC50 [nM]: 38
//
chemicalStructure: CC(C)(O)c1ccc(-c2nc(-c3ccccn3)oc2Sc2ncc(Cl)cn2)cn1
assayTarget: human FAAH (Fatty Acid Amide Hydrolase) (Homo sapiens)
IC50 [nM]: 140
//
chemicalStructure: Cc1ccc(-c2nc(-c3ccc(C(C)(C)O)nc3)c(Sc3ccc(Cl)cn3)o2)cc1
assayTarget: human FAAH (Fatty Acid Amide Hydrolase) (Homo sapiens)
IC50 [nM]: 20
//
chemicalStructure: CS(=O)(=O)c1ccc(-c2nc(-c3ccc(F)cc3)oc2Sc2ccc(Cl)cn2)cc1
assayTarget: human FAAH (Fatty Acid Amide Hydrolase) (Homo sapiens)
IC50 [nM]: 28
//
chemicalStructure: CS(=O)(=O)c1ccc(-c2nc(-c3ccc(F)cc3)oc2Sc2ccc(Cl)cn2)cn1
assayTarget: human FAAH (Fatty Acid Amide Hydrolase) (Homo sapiens)
IC50 [nM]: 12
//
chemicalStructure: CC(C)(O)c1ccc(-c2nc(-c3cc(F)c(F)cc3F)oc2Sc2ccc(Cl)cn2)cn1
assayTarget: human FAAH (Fatty Acid Amide Hydrolase) (Homo sapiens)
IC50 [nM]: 37
//
chemicalStructure: CC(C)(O)c1csc(-c2nc(-c3ccc(F)cc3)oc2Sc2ccc(Cl)cn2)n1
assayTarget: human FAAH (Fatty Acid Amide Hydrolase) (Homo sapiens)
IC50 [nM]: 161
//
chemicalStructure: CS(=O)(=O)c1ccc(-c2nc(-c3ccc(F)cc3)oc2Sc2ncc(Cl)cn2)cn1
assayTarget: human FAAH (Fatty Acid Amide Hydrolase) (Homo sapiens)
IC50 [nM]: 24
//
chemicalStructure: CC(C)(O)c1ccc(-c2nc(C3CC3)oc2Sc2ccc(Cl)cn2)cn1
assayTarget: human FAAH (Fatty Acid Amide Hydrolase) (Homo sapiens)
IC50 [nM]: 46

----------
Entries and their IC50 values follow.
Biological target: UniProtKB P97612
Assay: FAAH whole cell assay, CHO cells expressing rat FAAH

chemicalStructure: CC(C)(O)c1ccc(-c2nc(-c3ccc(F)c(F)c3)oc2Sc2ccc(Cl)cn2)cn1
IC50 [nM]: 21

chemicalStructure: CC(C)(O)c1cnc(-c2nc(-c3ccc(F)cc3)oc2Sc2ccc(Cl)cn2)cn1
IC50 [nM]: 44

chemicalStructure: CC(C)(O)c1ccc(-c2nc(-c3ccc(OC(F)(F)F)cc3)oc2Sc2ccc(Cl)cn2)cn1
IC50 [nM]: 83

chemicalStructure: CC(C)(O)c1cc(-c2nc(-c3ccc(F)cc3)oc2Sc2ccc(Cl)cn2)on1
IC50 [nM]: 35

chemicalStructure: COc1ccc(Sc2oc(-c3ccc(F)cc3)nc2-c2ccc(C(C)(C)O)nc2)c(F)c1
IC50 [nM]: 21

chemicalStructure: CC(C)(O)c1ccc(-c2nc(C3CC3)oc2Sc2ccc(Cl)cn2)cn1
IC50 [nM]: 247

chemicalStructure: CC(C)(O)c1ccc(-c2nc(-c3ccc(F)cc3)oc2Sc2ncc(Cl)cn2)cn1
IC50 [nM]: 29

chemicalStructure: Fc1ccc(-c2nc(-c3ccc(-c4ncon4)nc3)c(Sc3ccc(Cl)cn3)o2)cc1
IC50 [nM]: 14

chemicalStructure: COC(=O)c1cnc(-c2nc(-c3ccc(F)cc3)oc2Sc2ccc(Cl)cn2)nc1
IC50 [nM]: 16

----------
Entries and their log10(IC50) values follow.
Target: human FAAH (Fatty Acid Amide Hydrolase) (Homo sapiens)
Construct: The full length FAAH was subcloned into the mammalian expression vector, pcDEF.neo
Assay: FAAH whole cell assay, CHO cells expressing human FAAH
Assay type: cell-based
Where a name gives a salt, the structure may show the parent alone.
observedProperty: log10(IC50) (log10 of the value in nM)

molecule: Fc1ccc(-c2nc(-c3ccc(-c4ncon4)nc3)c(Sc3ccc(Cl)cn3)o2)cc1 [Ex 71]
observedProperty: log10(IC50)
obsValue: 1.48

molecule: CC(C)(O)c1ccc(-c2nc(-c3ccccn3)oc2Sc2ccc(F)cn2)cn1 [Ex 125]
observedProperty: log10(IC50)
obsValue: 3.36

molecule: CC(C)(O)c1csc(-c2nc(-c3ccc(F)cc3)oc2Sc2ccc(Cl)cn2)n1 [Ex 100]
observedProperty: log10(IC50)
obsValue: 2.53

molecule: CC(C)(O)c1ccc(-c2nc(-c3ccc(F)cc3)oc2Sc2ccc(Cl)cn2)cc1 [Ex 80]
observedProperty: log10(IC50)
obsValue: 1.83

molecule: CC(C)(O)c1ccc(-c2nc(-c3cc(F)c(F)cc3F)oc2Sc2ccc(Cl)cn2)cn1 [Ex 58]
observedProperty: log10(IC50)
obsValue: 2.05

molecule: C[S+]([O-])c1ccc(-c2nc(-c3ccc(F)cc3)oc2Sc2ccc(Cl)cn2)cn1 (racemic) [Ex 108]
observedProperty: log10(IC50)
obsValue: 1.30

molecule: CC(C)(O)c1ccc(-c2nc(-c3cncc(Cl)c3)oc2Sc2ccc(Cl)cn2)cn1 [Ex 119]
observedProperty: log10(IC50)
obsValue: 1.67

molecule: CC(C)(O)c1ncc(-c2nc(-c3ccc(F)cc3)oc2Sc2ccc(Cl)cn2)cn1 [Ex 74]
observedProperty: log10(IC50)
obsValue: 1.57

molecule: CC(C)(O)c1ccc(-c2nc(-c3ccc(F)cc3)oc2Sc2ccc(Cl)cc2)nc1 [Ex 46]
observedProperty: log10(IC50)
obsValue: 1.59

molecule: CC(C)(O)c1ccc(-c2nc(-c3ccc(F)c(F)c3)oc2Sc2ccc(Cl)cn2)cn1 [Ex 35]
observedProperty: log10(IC50)
obsValue: 1.57

molecule: CS(=O)(=O)c1ccc(-c2nc(-c3ccc(F)cc3)oc2Sc2ccc(Cl)cn2)cn1 [Ex 102]
observedProperty: log10(IC50)
obsValue: 1.54

molecule: N#CC1(c2ccc(-c3nc(-c4ccc(F)cc4)oc3Sc3ccc(Cl)cn3)cn2)CC(O)C1 (stereo not drawn) [Ex 122]
observedProperty: log10(IC50)
obsValue: 2.68

molecule: COC(=O)c1cnc(-c2nc(-c3ccc(F)cc3)oc2Sc2ccc(Cl)cn2)nc1 [Ex 124]
observedProperty: log10(IC50)
obsValue: 1.99

molecule: Fc1ccc(-c2nc(-c3ccc(-c4ncon4)cc3)c(Sc3ccc(Cl)cc3)o2)cc1 [Ex 48]
observedProperty: log10(IC50)
obsValue: 1.89

molecule: CC(C)(O)c1ccc(-c2nc(-c3ccccc3)oc2Sc2ncc(Cl)cn2)cn1 [Ex 62]
observedProperty: log10(IC50)
obsValue: 1.61

molecule: CC(C)(O)c1ccc(-c2nc(-c3ccc(F)cc3)oc2Sc2ccc(F)cn2)cn1 [Ex 19]
observedProperty: log10(IC50)
obsValue: 1.89

molecule: CC(C)(O)c1cnc(-c2nc(-c3ccc(F)cc3)oc2Sc2ccc(Cl)cn2)cn1 [Ex 3]
observedProperty: log10(IC50)
obsValue: 1.85

molecule: CC(C)(O)c1ccc(-c2nc(-c3ccc(OC(F)(F)F)cc3)oc2Sc2ccc(Cl)cn2)cn1 [Ex 68]
observedProperty: log10(IC50)
obsValue: 2.00

molecule: CC(C)(O)c1ccc(-c2nc(-c3ccc(F)cc3)oc2Sc2ncc(Cl)cn2)cn1 [Ex 20]
observedProperty: log10(IC50)
obsValue: 1.77

molecule: Cc1ccc(-c2nc(-c3ccc(C(C)(C)O)nc3)c(Sc3ccc(Cl)cn3)o2)cc1 [Ex 59]
observedProperty: log10(IC50)
obsValue: 1.83

molecule: CCn1cc(-c2nc(-c3ccc(C(C)(C)O)nc3)c(Sc3ccc(Cl)cc3)o2)cn1 [Ex 111]
observedProperty: log10(IC50)
obsValue: 1.81

molecule: CC(C)(O)c1ccc(-c2nc(-c3ccc(F)cc3)oc2Sc2ccc(Cl)cn2)nn1 [Ex 96]
observedProperty: log10(IC50)
obsValue: 2.12

molecule: CC(C)(O)c1ccc(-c2nc(C3CC3)oc2Sc2ccc(Cl)cn2)cn1 [Ex 90]
observedProperty: log10(IC50)
obsValue: 3.00

molecule: CS(=O)(=O)c1ccc(-c2nc(-c3ccccn3)oc2Sc2ccc(Cl)cc2)cc1 [Ex 56]
observedProperty: log10(IC50)
obsValue: 2.06

molecule: CC(C)(O)c1ccc(-c2nc(Cc3ccc(F)cc3)oc2Sc2ccc(Cl)cn2)cn1 [Ex 123]
observedProperty: log10(IC50)
obsValue: 2.71

molecule: CS(=O)(=O)c1ccc(-c2nc(-c3ccc(F)cc3)oc2Sc2ncc(Cl)cn2)cn1 [Ex 107]
observedProperty: log10(IC50)
obsValue: 1.96

molecule: CC(C)(O)c1ccc(-c2nc(-c3ccc(F)cc3)oc2Sc2ccc(Cl)cn2)cn1 [Ex 12]
observedProperty: log10(IC50)
obsValue: 1.40

molecule: CS(=O)(=O)c1ccc(-c2nc(-c3ccc(F)cc3)oc2Sc2ccc(Cl)cn2)cc1 [Ex 78]
observedProperty: log10(IC50)
obsValue: 1.84

molecule: COc1ccc(Sc2oc(-c3ccc(F)cc3)nc2-c2ccc(C(C)(C)O)nc2)c(F)c1 [Ex 65]
observedProperty: log10(IC50)
obsValue: 1.46

molecule: CC(C)(O)c1ccc(-c2nc(-c3ccccn3)oc2Sc2ncc(Cl)cn2)cn1 [Ex 131]
observedProperty: log10(IC50)
obsValue: 3.05

molecule: CC(C)(O)c1cc(-c2nc(-c3ccc(F)cc3)oc2Sc2ccc(Cl)cn2)on1 [Ex 98]
observedProperty: log10(IC50)
obsValue: 2.35

molecule: Cc1cc(F)ccc1-c1nc(-c2ccc(C(C)(C)O)nc2)c(Sc2ccc(Cl)cn2)o1 [Ex 37]
observedProperty: log10(IC50)
obsValue: 1.60

molecule: CC(C)(O)c1ccc(-c2nc(-c3ccccn3)oc2Sc2ccc(Cl)cn2)cn1 [Ex 51, trifluoroacetic acid salt]
observedProperty: log10(IC50)
obsValue: 2.17
